System: Escherichia coli
Assay: Antibacterial activity against gentamicin-resistant Escherichia coli CAN-ICU 61714 assessed as reduction in bacterial growth incubated for 18 hrs by broth microdilution assay
Format: functional
metric.name: MIC

chemical.smiles	test.result
CO[C@H]1/C=C/O[C@@]2(C)Oc3c(C)c(O)c4c(O)c(c(/C=N/N5CCN(Cc6cn(CCCCCCCCCCCCO[C@@H]7[C@@H](O[C@H]8O[C@H](CO)[C@@H](O)[C@H](N)[C@H]8O)[C@H](N)C[C@H](N)[C@H]7O[C@H]7O[C@H](CN)[C@@H](O)C[C@H]7N)nn6)CC5)c(O)c4c3C2=O)NC(=O)/C(C)=C\C=C\[C@H](C)[C@H](O)[C@@H](C)[C@@H](O)[C@@H](C)[C@H](OC(C)=O)[C@@H]1C.O=C(O)C(F)(F)F.O=C(O)C(F)(F)F.O=C(O)C(F)(F)F.O=C(O)C(F)(F)F.O=C(O)C(F)(F)F	> 32 µg/mL

###

Test system: Pseudomonas aeruginosa
Assay: Antibacterial activity against Pseudomonas aeruginosa 262-101856 assessed as fractional inhibitory concentration index in presence of doxycycline incubated for 18 hrs by broth microdilution assay
Type: functional
metric.name: fractional inhibitory concentration index (FICI)

compound	test.result
CO[C@H]1/C=C/O[C@@]2(C)Oc3c(C)c(O)c4c(O)c(c(/C=N/N5CCN(C)CC5)c(O)c4c3C2=O)NC(=O)/C(C)=C\C=C\[C@H](C)[C@H](O)[C@@H](C)[C@@H](O)[C@@H](C)[C@H](OC(C)=O)[C@@H]1C [RIFAMPIN]	1.5
CO[C@H]1/C=C/O[C@@]2(C)Oc3c(C)c(O)c4c(O)c(c(/C=N/N5CCN(Cc6cn(CCCCCCO[C@@H]7[C@@H](O[C@H]8O[C@H](CO)[C@@H](O)[C@H](N)[C@H]8O)[C@H](N)C[C@H](N)[C@H]7O[C@H]7O[C@H](CN)[C@@H](O)C[C@H]7N)nn6)CC5)c(O)c4c3C2=O)NC(=O)/C(C)=C\C=C\[C@H](C)[C@H](O)[C@@H](C)[C@@H](O)[C@@H](C)[C@H](OC(C)=O)[C@@H]1C.Cl.Cl.Cl.Cl.Cl	<0.07
CO[C@H]1/C=C/O[C@@]2(C)Oc3c(C)c(O)c4c(O)c(c(/C=N/N5CCN(Cc6cn(CCCCCCCCCCCCO[C@@H]7[C@@H](O[C@H]8O[C@H](CO)[C@@H](O)[C@H](N)[C@H]8O)[C@H](N)C[C@H](N)[C@H]7O[C@H]7O[C@H](CN)[C@@H](O)C[C@H]7N)nn6)CC5)c(O)c4c3C2=O)NC(=O)/C(C)=C\C=C\[C@H](C)[C@H](O)[C@@H](C)[C@@H](O)[C@@H](C)[C@H](OC(C)=O)[C@@H]1C.O=C(O)C(F)(F)F.O=C(O)C(F)(F)F.O=C(O)C(F)(F)F.O=C(O)C(F)(F)F.O=C(O)C(F)(F)F	<0.07
NC[C@H]1O[C@H](O[C@H]2[C@H](O)[C@@H](O[C@H]3O[C@H](CO)[C@@H](O)[C@H](N)[C@H]3O)[C@H](N)C[C@@H]2N)[C@H](N)C[C@@H]1O [TOBRAMYCIN]	<=1.5

###

Listing: MIC of selected compounds
Test system: Pseudomonas aeruginosa
Experiment: Antibacterial activity against wild type Pseudomonas aeruginosa PAO1 assessed as reduction in bacterial growth incubated for 18 hrs by broth microdilution assay
Format: functional
metric.name: MIC

chemical.smiles	target.or.system	metric.name	test.result
CO[C@H]1/C=C/O[C@@]2(C)Oc3c(C)c(O)c4c(O)c(c(/C=N/N5CCN(Cc6cn(CCCCCCO[C@@H]7[C@@H](O[C@H]8O[C@H](CO)[C@@H](O)[C@H](N)[C@H]8O)[C@H](N)C[C@H](N)[C@H]7O[C@H]7O[C@H](CN)[C@@H](O)C[C@H]7N)nn6)CC5)c(O)c4c3C2=O)NC(=O)/C(C)=C\C=C\[C@H](C)[C@H](O)[C@@H](C)[C@@H](O)[C@@H](C)[C@H](OC(C)=O)[C@@H]1C.Cl.Cl.Cl.Cl.Cl	Pseudomonas aeruginosa	MIC	512 µg/mL
CO[C@H]1/C=C/O[C@@]2(C)Oc3c(C)c(O)c4c(O)c(c(/C=N/N5CCN(Cc6cn(CCCCO[C@@H]7[C@@H](O[C@H]8O[C@H](CO)[C@@H](O)[C@H](N)[C@H]8O)[C@H](N)C[C@H](N)[C@H]7O[C@H]7O[C@H](CN)[C@@H](O)C[C@H]7N)nn6)CC5)c(O)c4c3C2=O)NC(=O)/C(C)=C\C=C\[C@H](C)[C@H](O)[C@@H](C)[C@@H](O)[C@@H](C)[C@H](OC(C)=O)[C@@H]1C.O=C(O)C(F)(F)F.O=C(O)C(F)(F)F.O=C(O)C(F)(F)F.O=C(O)C(F)(F)F.O=C(O)C(F)(F)F	Pseudomonas aeruginosa	MIC	512 µg/mL
CO[C@H]1/C=C/O[C@@]2(C)Oc3c(C)c(O)c4c(O)c(c(/C=N/N5CCN(Cc6cn(CCCCCCCCCCCCO[C@@H]7[C@@H](O[C@H]8O[C@H](CO)[C@@H](O)[C@H](N)[C@H]8O)[C@H](N)C[C@H](N)[C@H]7O[C@H]7O[C@H](CN)[C@@H](O)C[C@H]7N)nn6)CC5)c(O)c4c3C2=O)NC(=O)/C(C)=C\C=C\[C@H](C)[C@H](O)[C@@H](C)[C@@H](O)[C@@H](C)[C@H](OC(C)=O)[C@@H]1C.O=C(O)C(F)(F)F.O=C(O)C(F)(F)F.O=C(O)C(F)(F)F.O=C(O)C(F)(F)F.O=C(O)C(F)(F)F	Pseudomonas aeruginosa	MIC	512 µg/mL
CO[C@H]1/C=C/O[C@@]2(C)Oc3c(C)c(O)c4c(O)c(c(/C=N/N5CCN(C)CC5)c(O)c4c3C2=O)NC(=O)/C(C)=C\C=C\[C@H](C)[C@H](O)[C@@H](C)[C@@H](O)[C@@H](C)[C@H](OC(C)=O)[C@@H]1C	Pseudomonas aeruginosa	MIC	16 µg/mL
NC[C@H]1O[C@H](O[C@H]2[C@H](O)[C@@H](O[C@H]3O[C@H](CO)[C@@H](O)[C@H](N)[C@H]3O)[C@H](N)C[C@@H]2N)[C@H](N)C[C@@H]1O	Pseudomonas aeruginosa	MIC	1 µg/mL

###

Test: Toxicity in Galleria mellonella larvae assessed as larval […] at 100 mg/kg measured after 24 hrs
Type: organism-based
Settings: in vivo
metric.name: mortality at 24 h (%)

chemical.smiles	metric.name	unit.symbol	test.result
C[C@@H](O)[C@H]1C(=O)N2C(C(=O)O)=C(S[C@@H]3CN[C@H](C(=O)N(C)C)C3)[C@H](C)[C@H]12	mortality at 24 h	%	100

###

Tested on: Pseudomonas aeruginosa
Assay: Antibacterial activity against Pseudomonas aeruginosa 101885 assessed as reduction in bacterial growth incubated for 18 hrs by broth microdilution assay
Assay type: functional

chemical.smiles	unit.symbol	MIC
CO[C@H]1/C=C/O[C@@]2(C)Oc3c(C)c(O)c4c(O)c(c(/C=N/N5CCN(Cc6cn(CCCCCCO[C@@H]7[C@@H](O[C@H]8O[C@H](CO)[C@@H](O)[C@H](N)[C@H]8O)[C@H](N)C[C@H](N)[C@H]7O[C@H]7O[C@H](CN)[C@@H](O)C[C@H]7N)nn6)CC5)c(O)c4c3C2=O)NC(=O)/C(C)=C\C=C\[C@H](C)[C@H](O)[C@@H](C)[C@@H](O)[C@@H](C)[C@H](OC(C)=O)[C@@H]1C.Cl.Cl.Cl.Cl.Cl	µg/mL	256

###

Experiment: Cytotoxicity against human HEK293 cells assessed as cell viability at 12 uM incubated for 48 hrs by prestoblue assay
Type: cell-based
Details: read-out: Activity

chemical.smiles	viability at 48 h, 12 µM
COc1cccc2c1C(=O)c1c(O)c3c(c(O)c1C2=O)C[C@@](O)(C(=O)CO)C[C@@H]3O[C@H]1C[C@H](N)[C@H](O)[C@H](C)O1	< 10%

###

Assay: Hemolytic activity in porcine erythrocyte at 1024 ug/ml incubated for 1 hr
Assay type: ADME, cell-based, Sus scrofa
Conditions: pig, porcine erythrocytes, at 1024 µg/mL, read-out: Activity
The entries below are paired with their reported hemolysis at 1 h, 1024 ug/ml.
metric.name: hemolysis at 1 h, 1024 ug/ml

chemical.smiles	test.result
CO[C@H]1/C=C/O[C@@]2(C)Oc3c(C)c(O)c4c(O)c(c(/C=N/N5CCN(Cc6cn(CCCCCCCCCCCCO[C@@H]7[C@@H](O[C@H]8O[C@H](CO)[C@@H](O)[C@H](N)[C@H]8O)[C@H](N)C[C@H](N)[C@H]7O[C@H]7O[C@H](CN)[C@@H](O)C[C@H]7N)nn6)CC5)c(O)c4c3C2=O)NC(=O)/C(C)=C\C=C\[C@H](C)[C@H](O)[C@@H](C)[C@@H](O)[C@@H](C)[C@H](OC(C)=O)[C@@H]1C.O=C(O)C(F)(F)F.O=C(O)C(F)(F)F.O=C(O)C(F)(F)F.O=C(O)C(F)(F)F.O=C(O)C(F)(F)F	< 2%
CO[C@H]1/C=C/O[C@@]2(C)Oc3c(C)c(O)c4c(O)c(c(/C=N/N5CCN(Cc6cn(CCCCO[C@@H]7[C@@H](O[C@H]8O[C@H](CO)[C@@H](O)[C@H](N)[C@H]8O)[C@H](N)C[C@H](N)[C@H]7O[C@H]7O[C@H](CN)[C@@H](O)C[C@H]7N)nn6)CC5)c(O)c4c3C2=O)NC(=O)/C(C)=C\C=C\[C@H](C)[C@H](O)[C@@H](C)[C@@H](O)[C@@H](C)[C@H](OC(C)=O)[C@@H]1C.O=C(O)C(F)(F)F.O=C(O)C(F)(F)F.O=C(O)C(F)(F)F.O=C(O)C(F)(F)F.O=C(O)C(F)(F)F	< 2%
CO[C@H]1/C=C/O[C@@]2(C)Oc3c(C)c(O)c4c(O)c(c(/C=N/N5CCN(Cc6cn(CCCCCCO[C@@H]7[C@@H](O[C@H]8O[C@H](CO)[C@@H](O)[C@H](N)[C@H]8O)[C@H](N)C[C@H](N)[C@H]7O[C@H]7O[C@H](CN)[C@@H](O)C[C@H]7N)nn6)CC5)c(O)c4c3C2=O)NC(=O)/C(C)=C\C=C\[C@H](C)[C@H](O)[C@@H](C)[C@@H](O)[C@@H](C)[C@H](OC(C)=O)[C@@H]1C.Cl.Cl.Cl.Cl.Cl	< 2%
